This collection of values is drawn from patent US6479435B1.

# Test system: green foxtail (Setaria viridis, SETVI)
# test_name: Post-emerge greenhouse herbicide test, phytotoxicity rating
# Format: in vivo
# condition_info: 500 g al/ha, 14 days after application
# Procedure: A standard greenhouse herbicide activity screening system was used to evaluate the herbicidal efficacy and crop safety of these test compounds. […] At 14 days after application of the test materials, phytotoxicity ratings were recorded. […]
Each entry below carries its recorded SETVI phytotoxicity rating (0-100).
Lab note: jot the number down without any unit.

# example entries with known answers
molecule | SETVI phytotoxicity rating (0-100)
Nc1ccc(Oc2cc(-n3c(=O)n4n(c3=S)CCCC4)c(F)cc2Cl)cc1 | 30
O=c1sc(=Nc2cc(Oc3ncccc3C(F)(F)F)c(Cl)cc2F)n2n1CCCC2 | 60
Cn1nc(-c2cc(Oc3nc(F)c(F)cc3F)c(Cl)cc2F)c(Cl)c1C(F)(F)F | 60

Please report the recorded SETVI phytotoxicity rating (0-100) for CCOC(=O)C(C)Oc1ccc(Oc2cc(-n3c(=O)n4n(c3=S)CCCC4)c(F)cc2Cl)cc1 (centres unmarked) .
60

Please report the recorded SETVI phytotoxicity rating (0-100) for Cn1c(C(F)(F)F)nc(-c2cc(Oc3ncccc3C(F)(F)F)c(Cl)cc2F)c1Cl .
30

Please report the recorded SETVI phytotoxicity rating (0-100) for N#Cc1cccnc1Oc1cc(-n2nnn(CCCF)c2=O)c(Cl)cc1Cl .
30

Please report the recorded SETVI phytotoxicity rating (0-100) for Nc1ccc(Oc2cc(-n3c(=O)n4n(c3=S)CCCC4)c(F)cc2Cl)c(C(F)(F)F)c1 .
0

Please report the recorded SETVI phytotoxicity rating (0-100) for O=c1n(CCCF)nnn1-c1cc(Oc2ncccc2[N+](=O)[O-])c(Cl)cc1Cl .
30
